system_under_test: Gamma-aminobutyric acid receptor subunit alpha-5 (Homo sapiens, UniProt P31644)
Sequence (P31644 whole entry): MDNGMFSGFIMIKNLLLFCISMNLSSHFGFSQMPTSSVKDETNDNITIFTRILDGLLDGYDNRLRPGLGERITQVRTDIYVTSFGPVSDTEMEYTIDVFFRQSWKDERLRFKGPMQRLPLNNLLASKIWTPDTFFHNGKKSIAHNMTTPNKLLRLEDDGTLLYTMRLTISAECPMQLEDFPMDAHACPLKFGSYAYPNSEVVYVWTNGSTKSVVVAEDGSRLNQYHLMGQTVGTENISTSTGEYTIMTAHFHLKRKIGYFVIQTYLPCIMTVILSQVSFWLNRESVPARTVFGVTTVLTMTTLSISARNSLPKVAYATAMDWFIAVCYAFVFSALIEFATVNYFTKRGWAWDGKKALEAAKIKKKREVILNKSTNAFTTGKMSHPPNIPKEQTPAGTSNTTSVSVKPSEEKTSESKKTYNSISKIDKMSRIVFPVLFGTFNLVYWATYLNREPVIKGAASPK
method_description: Inhibition of GABAA alpha5 receptor (unknown origin)
pIC50: −log10 of the molar value.

>  <compound_structure_string>
c1ccc2c(c1)[nH]c1cnc3c4ccncc4[nH]c3c12

>  <pIC50>
6.62

$$$$
>  <compound_structure_string>
c1ccc2c(c1)[nH]c1cnc3c4cccnc4[nH]c3c12

>  <pIC50>
6.70

$$$$

----------
system_under_test: 5-hydroxytryptamine receptor 1A (Homo sapiens, UniProt P08908)
Sequence (P08908 whole entry): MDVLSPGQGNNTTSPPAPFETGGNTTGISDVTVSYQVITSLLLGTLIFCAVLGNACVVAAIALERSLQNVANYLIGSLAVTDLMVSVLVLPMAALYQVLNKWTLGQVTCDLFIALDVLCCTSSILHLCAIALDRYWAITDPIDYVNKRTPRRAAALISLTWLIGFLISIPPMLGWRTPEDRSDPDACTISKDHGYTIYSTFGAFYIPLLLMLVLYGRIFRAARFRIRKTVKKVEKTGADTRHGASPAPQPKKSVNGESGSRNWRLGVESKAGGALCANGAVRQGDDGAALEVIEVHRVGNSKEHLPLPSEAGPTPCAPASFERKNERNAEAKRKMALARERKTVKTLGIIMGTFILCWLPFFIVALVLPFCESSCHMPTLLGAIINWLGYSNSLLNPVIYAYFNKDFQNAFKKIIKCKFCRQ
method_description: Displacement of […] from human 5-HT1A expressed in human HEK cells assessed as inhibition constant by FLIPR assay
Assay type: cell-based
// reported Ki for each item listed

>  <compound>
CC1=NCCc2c1[nH]c1ccccc21

>  <system_under_test>
5-hydroxytryptamine receptor 1A (Homo sapiens, UniProt P08908)

>  <value_comparator>
=

>  <Ki, nM>
1700

$$$$
>  <compound>
COc1ccc2c3c([nH]c2c1)C(C)=NCC3 [HARMALINE]

>  <system_under_test>
5-hydroxytryptamine receptor 1A (Homo sapiens, UniProt P08908)

>  <value_comparator>
>

>  <Ki, nM>
10000

$$$$
